Test system: A549
procedure summary: NCI tumour cell line growth inhibition, 48 h
Calls of active or inactive are those of the source. No stated cut-off is given here; in the data, active = GI50 up to about 1.1 µM and inactive = higher.
measured parameter: GI50

CCNc1nc(N)c(C(=O)c2cccs2)s1
29.8 µM (inactive)

Turning to the following compound.
## Task Give GI50 for O=C1CC[C@H]2CNC(=O)C[C@H]2C1
## Result > 100 µM (inactive)

====

Tested on: Malme-3M
procedure summary: NCI tumour cell line growth inhibition, 48 h
Active and inactive are the calls of the source. Cut-off read from the data, not from the text of the source: active = GI50 up to about 1.1 µM and inactive = higher.
Form entry, call: pick from active, inactive

Solved cases below.
N#CC(NNC(=O)Cc1ccccc1)c1ccc([N+](=O)[O-])cc1 (centres undefined)
inactive
CC1=CC2(O)OC3(CC2=C(C)C)C(C)CCC13 (centres undefined)
inactive
Cc1ccc(C)n1-n1c(-c2ccccc2)n[nH]c1=O
inactive
CCOC(=O)C1C(=O)C=C(c2cc(C)ccc2O)CC1c1cccc(Br)c1 (centres undefined)
inactive
CC(C)(CO)N1CCN(C(S)=Nc2ccccc2)CC1
inactive
COc1ccc2c3c(c4cc(OC)c(OC)cc4c2c1)CN1CCC[C@H]1[C@@H]3O
active
NC(=S)NS(=O)(=O)c1ccc(Cl)cc1
inactive
CC1=CC(=O)NP(=O)(Oc2ccc(Cl)cc2)N1 (centres undefined)
inactive
C[N+]1(C)CCOC(O)(c2ccccc2)C1 (centres undefined)
inactive
CCOC(=O)NN(C(=O)OCC)C(C(=O)C1=CCCCC1)N(NC(=O)OCC)C(=O)OCC
inactive

## Task Check the results log: what was the call for COCCN1C2=CCCCC2=Nc2c1nc(N)[nH]c2=O ?
## Result inactive

## Task Check the results log: what was the call for COc1cc2cc3c4cc(OC)c(OC)cc4cc[n+]3cc2cc1OC ?
## Result inactive

## Task Check the results log: what was the call for O=C(O)c1ccccc1CC1Cc2ccccc2C1 ?
## Result inactive

## Task Check the results log: what was the call for O=C(O)CSc1nnc2c3ccccc3c3ccccc3c2n1 ?
## Result inactive

====

Test system: 786-0
procedure summary: NCI tumour cell line growth inhibition, 48 h
Counter-ions that a name gives are not always drawn. The source made the active and inactive calls. Rule as the data show it: active = GI50 up to about 1.1 µM and inactive = higher.
Form entry, call: pick from label 1 for active, label 0 for inactive

Solved cases below.
C=C(C(=O)O[C@H]1C/C(C)=C/CC/C(CO)=C/[C@H]2C(=O)OC(=C)[C@H]12)C(O)CO (stereo not given in full)
label 0
CCOC(=O)c1c(SCCN2CCCC2)n(-c2ccccc2)c(=S)n(-c2ccccc2)c1=O
label 0
CC(C)C(/C=C/c1ccccc1)=N\NC(=O)N/N=C(/C=C/c1ccccc1)C(C)C
label 0
O=[N+]([O-])c1cccc(C2SCc3nc4ccccc4n32)c1 (stereo not given)
label 0
O=C1NC(=O)C2C(=O)NC(=O)C1C2(c1ccccc1)c1cc[nH]c1 (stereo not given)
label 0
c1ccc(CNc2nncc3[nH]cnc23)cc1
label 0
NCCc1cc(O)c(O)cc1O [OXIDOPAMINE HYDROCHLORIDE]
label 0
C/C(=N\N(c1ccccc1)c1ccccc1)c1c(O)cc(C)oc1=O
label 0
CC(=O)[C@@H]1C/C(=C\OCc2ccccc2)O[C@H]1C
label 0
CN(C)P(=O)(Oc1ccc(CC(NC(=O)OCc2ccccc2)C(=O)OCc2ccccc2)cc1)N(C)C (stereo not given)
label 0

## Task Check the results log: what was the call for CC(Oc1ccc(OCC2CCCCC2)cc1)C(=O)OCC(=O)c1ccc(-c2ccccc2)cc1 (stereo not given) ?
## Result label 0

## Task Check the results log: what was the call for O=[N+]([O-])c1ccc2c(c1)n1c(N3CCCC3)[n+]3ccccc3c1c1c3ccccn3c(N3CCCC3)[n+]21.[O-][Cl+3]([O-])([O-])[O-].[O-][Cl+3]([O-])([O-])[O-] ?
## Result label 0

## Task Check the results log: what was the call for Cc1c2cc[n+](CCN3CCCCC3)cc2c(C)c2c1[nH]c1ccc(O)cc12 ?
## Result label 0

## Task Check the results log: what was the call for N#C/C(=C\NC(=S)Nc1ccc(S(=O)(=O)Nc2ccccn2)cc1)C(N)=O ?
## Result label 0

## Task Check the results log: what was the call for O=C1CC(c2cccc(F)c2)Nc2cc3c(cc21)OCO3 (stereo not given) ?
## Result label 1

## Task Check the results log: what was the call for O=C1NCCN1/N=C/c1c(Cl)n(-c2ccccc2)c2ccccc12 ?
## Result label 0

## Task Check the results log: what was the call for Nc1nc(Cl)cc(NCC2(CO)CCC2)n1 ?
## Result label 0

## Task Check the results log: what was the call for CN1CC2CN(Cc3ccccc3)CCN2c2cccnc21 (stereo not given) ?
## Result label 0

## Task Check the results log: what was the call for COCCN1C2=CCCCC2=Nc2c1nc(N)[nH]c2=O ?
## Result label 0

## Task Check the results log: what was the call for Cc1cc(OCc2nnc3sc(NC(=O)c4ccccc4)nn23)ccc1Cl ?
## Result label 0

## Task Check the results log: what was the call for Cc1ccc(S(=O)(=O)N[C@H](C(=O)O)c2ccccc2)cc1 ?
## Result label 0

## Task Check the results log: what was the call for NC(=S)NS(=O)(=O)c1ccc(Cl)cc1 ?
## Result label 0

## Task Check the results log: what was the call for Nc1nc(CCl)nc(N2CCOCC2)n1 ?
## Result label 0
